Molecular target: Bcl-2-like protein 1 (Homo sapiens, UniProt Q07817, E96G)
Sequence (Q07817 whole entry E96G): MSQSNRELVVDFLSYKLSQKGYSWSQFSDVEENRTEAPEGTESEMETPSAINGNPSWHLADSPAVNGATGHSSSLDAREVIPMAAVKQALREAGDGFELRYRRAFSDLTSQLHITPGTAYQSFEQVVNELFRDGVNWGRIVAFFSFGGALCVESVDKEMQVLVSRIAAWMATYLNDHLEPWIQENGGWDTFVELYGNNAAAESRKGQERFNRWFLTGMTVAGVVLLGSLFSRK
Assay: Displacement of BODIPY-Bak conjugated peptide from GST-tagged human Bcl-2-like protein 1 E96G mutant expressed in Escherichia coli BL21 cells at 10 uM after 3 hrs by fluorescence polarization competition assay
pKi: −log10 of the molar value.
experimentalEndpoint: pKi

> print(dat)
                                 chemsmiles                         measurementtarget  experimentalendpoint  quantitativereadout
1  CN(C)CC[C@H](CSc1ccccc1)Nc1ccc(S(=O)(=O)NC(=O)c2ccc(N3CCC(C)(C)CC3)cc2)cc1[N+](=O)[O-]  Bcl-2-like protein 1 (Homo sapiens, UniProt Q07817, E96G)                   pKi                 7.62

###

Target: Bcl-2-like protein 1 (Homo sapiens, UniProt Q07817, L130V)
Sequence (Q07817 whole entry L130V): as the sequence (Q07817 whole entry E96G) above, with G96E, L130V counted along it
Test: Displacement of BODIPY-Bak conjugated peptide from GST-tagged human Bcl-2-like protein 1 L130V mutant expressed in Escherichia coli BL21 cells at 10 uM after 3 hrs by fluorescence polarization competition assay
// assign true (1) if Ki falls strictly below 60 nM, else false (0) (ties count as false (0))

molecule	group
CN(C)CC[C@H](CSc1ccccc1)Nc1ccc(S(=O)(=O)NC(=O)c2ccc(N3CCN(Cc4ccccc4C(F)(F)F)CC3)cc2)cc1[N+](=O)[O-]	true (1)
CC(C)[C@H]1CN(Cc2ccccc2C(F)(F)F)CCN1c1ccc(C(=O)NS(=O)(=O)c2ccc(N[C@H](CCN(C)C)CSc3ccccc3)c([N+](=O)[O-])c2)cc1	false (0)
C[C@H]1CN(c2ccc(C(=O)NS(=O)(=O)c3ccc(N[C@H](CCN(C)C)CSc4ccccc4)c([N+](=O)[O-])c3)cc2)CCN1Cc1ccccc1C(F)(F)F	true (1)
CC(C)[C@@H]1CN(Cc2ccccc2C(F)(F)F)CCN1c1ccc(C(=O)NS(=O)(=O)c2ccc(N[C@H](CCN(C)C)CSc3ccccc3)c([N+](=O)[O-])c2)cc1	true (1)
CC1CN(c2ccc(C(=O)NS(=O)(=O)c3ccc(N[C@H](CCN(C)C)CSc4ccccc4)c([N+](=O)[O-])c3)cc2)CC(C)N1Cc1ccccc1C(F)(F)F (stereo partly specified)	false (0)
C[C@@H]1CN(c2ccc(C(=O)NS(=O)(=O)c3ccc(N[C@H](CCN(C)C)CSc4ccccc4)c([N+](=O)[O-])c3)cc2)CCN1Cc1ccccc1C(F)(F)F	true (1)

###

Target: Bcl-2-like protein 1 (Homo sapiens, UniProt Q07817, E96G)
Experiment: Displacement of BODIPY-Bak conjugated peptide from GST-tagged human Bcl-2-like protein 1 E96G mutant expressed in Escherichia coli BL21 cells at 40 uM after 3 hrs by fluorescence polarization competition assay
experimentalEndpoint: Ki

> print(dat)
                         substance   result
1  H-PAELEVECATQLRRFGDKLNFRQKLL-OH  > 10 µM

###

Molecular target: Bcl-2-like protein 1 (Homo sapiens, UniProt Q07817, A142G)
Assay: Displacement of BODIPY-Bak conjugated peptide from GST-tagged human Bcl-2-like protein 1 A142G mutant expressed in Escherichia coli BL21 cells at 10 uM after 3 hrs by fluorescence polarization competition assay
pKi: −log10 of the molar value.
experimentalEndpoint: pKi

> print(dat)
                                 chemsmiles                         measurementtarget  quantitativereadout
1  CN(C)CC[C@H](CSc1ccccc1)Nc1ccc(S(=O)(=O)NC(=O)c2ccc(N3CCC(C)(C)CC3)cc2)cc1[N+](=O)[O-]  Bcl-2-like protein 1 (Homo sapiens, UniProt Q07817, A142G)                 6.54

Provenance of the data: ChEMBL document CHEMBL1914418
